Give inhibition of growth at 200 ppm for every item shown.
System: Monographella nivalis (Microdochium nivale)
test summary: Monographella nivalis (Microdochium nivale) / liquid culture (foot rot cereals)
Assay type: cell-based
measurement conditions: PDB, 24° C., inhibition of growth determined photometrically 4-5 days after application, read-out: disease control

*Q* inhibition of growth at 200 ppm lookup needed for `N#Cc1ccc(-c2cc3c(cc2F)COB3O)cc1` , thanks.
*A* ≥ 80%

*Q* inhibition of growth at 200 ppm lookup needed for `CC(=O)Nc1ccc(F)c(-c2cc3c(cc2Cl)COB3O)c1` , thanks.
*A* ≥ 80%

*Q* inhibition of growth at 200 ppm lookup needed for `COc1ccc(OC)c(-c2cc3c(cc2Cl)COB3O)c1` , thanks.
*A* ≥ 80%

---

readout label: melting point

*Q* melting point lookup needed for COc1ccc(-c2cc3c(cc2Cl)COB3O)cc1 [Compound 8] , thanks.
*A* 105 to 115 °C

*Q* melting point lookup needed for OB1OCc2ccc(-c3ccccc3)cc21 [Compound 1, 1-hydroxy-6-phenyl-3H-2,1-benzoxaborole] , thanks.
*A* 140 to 150 °C

*Q* melting point lookup needed for COc1ccccc1-c1cc2c(cc1Cl)COB2O [Compound 7] , thanks.
*A* 90 to 105 °C

*Q* melting point lookup needed for Cc1ccc(-c2cc3c(cc2Cl)COB3O)cc1C [Compound 2] , thanks.
*A* 155 to 165 °C

*Q* melting point lookup needed for N#Cc1ccc(-c2cc3c(cc2F)COB3O)cc1 [Compound 29] , thanks.
*A* 270 to 272 °C

*Q* melting point lookup needed for OB1OCc2cc(F)c(-c3ccc(Cl)c(Cl)c3)cc21 [Compound 34] , thanks.
*A* 243 to 245 °C

*Q* melting point lookup needed for COc1ccccc1-c1cc2c(cc1F)COB2O [Compound 25] , thanks.
*A* 50 to 65 °C

*Q* melting point lookup needed for OB1OCc2cc(F)c(-c3ccc(F)cc3)cc21 [Compound 10] , thanks.
*A* 161 to 163 °C

*Q* melting point lookup needed for COc1cccc(-c2cc3c(cc2F)COB3O)c1 [Compound 27] , thanks.
*A* 118 to 120 °C

*Q* melting point lookup needed for OB1OCc2cc(F)c(-c3ccccc3)cc21 [Compound 9] , thanks.
*A* 142 to 152 °C

*Q* melting point lookup needed for COc1ccc(OC)c(-c2cc3c(cc2Cl)COB3O)c1 [Compound 12] , thanks.
*A* 95 to 115 °C

*Q* melting point lookup needed for OB1OCc2cc(Cl)c(-c3ccccc3)cc21 [Compound 3] , thanks.
*A* 135 to 145 °C
